Hi there, I'd appreciate the recorded IC50 for every entry that follows.
test system: U937 human histiocytic leukemia cell line; test: Screening for inhibition of TSQ induced necroptosis, 96 well plate format; format: cell-based; settings: U-937, U937, TSQ, 48 hours, average IC50, unit not given in Table 2 (titrations in nM), read-out: Cell based assay Average
Form entry: value (nM) — number only.

Req: For the compound CN(c1ccc(NC(=O)C(C)(C)c2ccc(OC(F)(F)F)cc2)cc1)c1ccnc(Nc2cccc(S(N)(=O)=O)c2)n1 [Compound 22] , what IC50 is on record?
Resp: 204

Req: Please give the result for Cc1ccc(Nc2nccc(N(C)c3ccc(NC(=O)Nc4ccc(OC(F)(F)F)cc4)cc3)n2)cc1S(N)(=O)=O [Compound 21] too.
Resp: 58.4

Req: Similarly, CN(c1ccc(NC(=O)Nc2ccc(OC(F)(F)F)cc2)cc1)c1ccnc(Nc2cccc(S(C)(=O)=O)c2)n1 [Compound 25] ?
Resp: 32.9

Req: Repeat with CN(c1ccc(NC(=O)Cc2ccc(OC(F)(F)F)cc2)cc1)c1ccnc(Nc2cccc(S(N)(=O)=O)c2)n1 [Compound 16]
Resp: 87.3

Req: Another compound to check: CN(c1ccc(NC(=O)Nc2ccc(OC(F)(F)F)cc2)cc1)c1ccnc(Nc2cccc(CS(N)(=O)=O)c2)n1 [Compound 13]
Resp: 149

Req: One more compound: COCCNS(=O)(=O)c1cccc(Nc2nccc(N(C)c3ccc(NC(=O)Nc4ccc(OC(F)(F)F)cc4)cc3)n2)c1 [Compound 23]
Resp: 43.9

Req: Do the same for CN(c1ccc(NC(=O)Nc2ccc(OC(F)(F)F)cc2)cc1)c1ccnc(Nc2cccc(C(N)=O)c2)n1 [Compound 8] please
Resp: 89.1

Req: Moving on to the next compound: CN(c1ccc(NC(=O)Nc2ccc(OC(F)(F)F)cc2)cc1)c1ccnc(Nc2cccc(S(N)(=O)=O)c2)c1 [Compound 15]
Resp: 304

Req: Request: Cc1ccc(F)c(NC(=O)Nc2ccc(N(C)c3ccnc(Nc4cccc(S(N)(=O)=O)c4)n3)cc2)c1 [Compound 6]
Resp: 19.9

Req: Ok, now CN(c1ccc(CC(=O)Nc2ccc(OC(F)(F)F)cc2)cc1)c1ccnc(Nc2cccc(S(N)(=O)=O)c2)n1 [Compound 17]
Resp: 1050

Req: Entry to check: NS(=O)(=O)c1cccc(Nc2nccc(Nc3ccc(NC(=O)Nc4ccc(OC(F)(F)F)cc4)cc3)n2)c1 [Compound 11]
Resp: 359
